Taken from paper PMC4256409.

// MIC lookup, one value per entry
- System: P. aeruginosa KCTC1637
- Format: cell-based, Pseudomonas aeruginosa
- Settings: KCTC1637, 16 h
Where no end group is shown, it is not given here.
# unit: µM | format: bare number

Check out these entries, answers already filled in.
{"Chain sequence": "FFHHIKRGIKHVGKTIHRLVTG [Pis-F6K/V10K]", "MIC / µM": 4.0}
{"Chain sequence": "FFHHIKRGIVHVGKTIHRLVTG [Pis-F6K]", "MIC / µM": 8.0}
{"Chain sequence": "KFHHIFRGIVHVGKTIHRLVTG [Pis-F1K]", "MIC / µM": 4.0}
{"Chain sequence": "FKHHIFRGIKHVGKTIHRLVTG [Pis-F2K/V10K]", "MIC / µM": 1.0}
{"Chain sequence": "AFHHIFRGIVHVGKTIHRLVTG [Pis-F1A]", "MIC / µM": 4.0}
{"Chain sequence": "FFHHIFRGIKHVGKTIHRLVTG [Pis-V10K]", "MIC / µM": 1.0}
{"Chain sequence": "FAHHIFRGIVHVGKTIHRLVTG [Pis-F2A]", "MIC / µM": 4.0}
{"Chain sequence": "KFHHIFRGIKHVGKTIHRLVTG [Pis-F1K/V10K]", "MIC / µM": 1.0}

Request: Write down MIC measured for item FFHHIARGIVHVGKTIHRLVTG [Pis-F6A]
Response: 4.0

Request: Write down MIC measured for item FKHHIFRGIVHVGKTIHRLVTG [Pis-F2K]
Response: 4.0

----------
- Tested on: MDRST CCARM 8003
- Assay type: cell-based, multidrug-resistant S. typhimurium
- Settings: broth microdilution, 37°C, 16 h, three independent experiments in triplicate, SD 14.0%
Where no end group is shown, it is not given here.
// MIC lookup, one value per entry

{"Chain sequence": "AFHHIFRGIVHVGKTIHRLVTG [Pis-F1A]", "Experimental system": "MDRST CCARM 8003", "Result": "8.0 µM"}

Request: Write down MIC measured for item FKHHIFRGIVHVGKTIHRLVTG [Pis-F2K]
Response: 16 µM

Request: Write down MIC measured for item FFHHIKRGIKHVGKTIHRLVTG [Pis-F6K/V10K]
Response: 16 µM

Request: Write down MIC measured for item KFHHIFRGIVHVGKTIHRLVTG [Pis-F1K]
Response: 4.0 µM

Request: Write down MIC measured for item FFHHIKRGIVHVGKTIHRLVTG [Pis-F6K]
Response: 16 µM

Request: Write down MIC measured for item FFHHIARGIVHVGKTIHRLVTG [Pis-F6A]
Response: 32 µM

Request: Write down MIC measured for item KFHHIFRGIKHVGKTIHRLVTG [Pis-F1K/V10K]
Response: 8.0 µM

Request: Write down MIC measured for item FFHHIFRGIVHVGKTIHRLVTG [Pis-1, reference compound]
Response: 4.0 µM

Request: Write down MIC measured for item FKHHIFRGIKHVGKTIHRLVTG [Pis-F2K/V10K]
Response: 16 µM

Request: Write down MIC measured for item FAHHIFRGIVHVGKTIHRLVTG [Pis-F2A]
Response: 32 µM

Request: Write down MIC measured for item FFHHIFRGIKHVGKTIHRLVTG [Pis-V10K]
Response: 8.0 µM
